// data source = patent US20230414780A1

- target under test: T1, rhesus monkey TfR ectodomain fused to a mouse IgG1 Fc fragment (rhesus monkey, UniProt I0FKY7 89-760)
- T1 construct: extracellular domain; not shown: mouse IgG1 Fc fragment
- method summary: SPR, kinetic
measure: log10(koff) (log10 of the value in s⁻¹)
Units before log transform: s⁻¹; reported quantity: koff; transform: log10.

C10a (VHH) VHH: EVQLVESGGGLVQAGDSLRLSCAASGFASHLYAIGWFRQAPGKEREKVSCISSNDGSTYYADSVKGRFTISRDTVKDMVYLQMNSLKPEDTAVYYCATDLTVHCFMAEYDWWGQGTQVTVSS: -1.75

// query Requested field: log10(koff). Item: VHH B (B8) (VHH) VHH: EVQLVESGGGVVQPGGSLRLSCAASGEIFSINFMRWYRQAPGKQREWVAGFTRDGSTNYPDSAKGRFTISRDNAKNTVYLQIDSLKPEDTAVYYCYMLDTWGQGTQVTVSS
// result -4.02

// query Requested field: log10(koff). Item: B8^V31 (VHH) VHH: EVQLVESGGGVVQPGGSLRLSCAASGEIKSINFMRWYRQAPGKQREWVAGFTRDGSTNYPDSAKGRFTISRDNAKNTVYLQIDSLKPEDTAVYYCYMLDTWGQGTQVTVSS
// result -1.29

// query Requested field: log10(koff). Item: B8^V12 (VHH) VHH: EVQLVESGGGVVQPGGSLRLSCAASGEIFYINFMRWYRQAPGKQREWVAGFTRDGSTNYPDSAKGRFTISRDNAKNTVYLQIDSLKPEDTAVYYCYMLDTWGQGTQVTVSS
// result -1.92

// query Requested field: log10(koff). Item: B8^V34 (VHH) VHH: EVQLVESGGGVVQPGGSLRLSCAASGEIRSINFMRWYRQAPGKQREWVAGFTRDGSTNYPDIAKGRFTISRDNAKNTVYLQIDSLKPEDTAVYYCYMLDTWGQGTQVTVSS
// result -0.99

// query Requested field: log10(koff). Item: B8^V35 (VHH) VHH: EVQLVESGGGVVQPGGSLRLSCAASGEIRSINFMRWYRQAPGKQREWVAGFTRDGSLNYPDSAKGRFTISRDNAKNTVYLQIDSLKPEDTAVYYCYMLDTWGKGTQVTVSS
// result -1.52

// query Requested field: log10(koff). Item: C5^V30 (VHH) VHH: EVQLVESGGGVVQPGGSLKLSCVASGTDKSINFIRWYRQAPGKQREFVAGFTATGNTNYADSMKGRFTISRDNTKNAVYLQIDSLKPEDTAVYYCYMLDKWGQGTQVTVSS
// result -0.72
